meta.source: paper PMC12136788

Target: T1, UNK ZnF1-3 (human, UniProt Q9C0B0 31-174)
T1 sequence: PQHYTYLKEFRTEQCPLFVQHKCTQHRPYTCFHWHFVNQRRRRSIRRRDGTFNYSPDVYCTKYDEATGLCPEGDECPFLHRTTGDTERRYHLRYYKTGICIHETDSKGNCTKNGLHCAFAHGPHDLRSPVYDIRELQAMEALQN
Assay: nsRBNS (natural sequence RNA bind-n-seq); RBNS binding buffer (assumed for nsRBNS): 25 mM Tris pH 7.5, 150 mM KCl, 3 mM MgCl2, 0.01% Triton X-100, 500 ug/ml BSA, 20 U/ml SUPERase-In, 4 C; UNK is unkempt and MSI1 is Musashi-1; names of the RNAs are library labels; protein concentration not given here; high values mean tight binding
The full ranking holds about 24,000 sequences; the median of “enrichment r” is about 0.99, and the highest 2% start at about 3.7. The sample holds the highest values, similar sequences and a random draw of the others, so the mix is not that of the screen.
Measured Quantity: binding signal (enrichment R)
Answers are plain numbers, in enrichment R.

Worked examples follow.
Binder: chr9:58044877:58044878:-_ENSMUSG00000051243_ENSMUST00000114144|mus_hu|FALSE|FALSE (ssRNA) RNA: GGGAGUUCUACAGUCCGACGAUCUCCCAGAGGCUGGGAAGGGGGUGUUAGCACCAGACCCGAAAUGUCGCUGUCUUUGAAAACAACGAAAACAGGAAAAUCUGAGCGCGGAGCUGAAAGGCGCCCCAGGCACCGGGCUGGACUCAACAGAGGAUUGAGCAUCA
Measured Quantity: binding signal
Unit Abbrev: enrichment R
Readout Value: 1.01
//
Binder: chr8:114060920:114060921:+_ENSMUSG00000033545_ENSMUST00000095176|mus_mus|FALSE|FALSE (ssRNA) RNA: GGGAGUUCUACAGUCCGACGAUCCGGGUGGAGGUCUGGGCGAACAUAAAGGCGGAGGGUUGGGGUUGGGGAGAGUCACAAAAGAGCCCCGAGGGGAGAAAAAUGAAAAAAGGUGAGGGGGGGAAUCCUCAAAAAAAAUCCGCGCAACAGAGGAUUGAGCAUCA
Measured Quantity: binding signal
Unit Abbrev: enrichment R
Readout Value: 4.66

# evaluate next
Asked: State the recorded binding signal for this entry: 32585910_32588873_1288_CDS_ENSMUSG00000024381_ENSMUST00000025239|mouse|control|control (ssRNA) RNA: GGGAGUUCUACAGUCCGACGAUCUGAGAAAGGCCCAGGGGCCUCAAACUGGGAGGGGGUGGUCACGCUGAUCUCAGGGACAAAUGCGUCAUCAAAAAGGCUGAGAAUCUGCUCCUGCUUCAUCUCCUUGGAUGGGGUGUGUUUCAACAGAGGAUUGAGCAUCA
Given back: 1.65
